- study system: panel of more than 300 wild-type and mutant kinases (313 kinase panel) (Homo sapiens, UniProt Q13554)
- Sequence (Q13554 whole entry, change not shown): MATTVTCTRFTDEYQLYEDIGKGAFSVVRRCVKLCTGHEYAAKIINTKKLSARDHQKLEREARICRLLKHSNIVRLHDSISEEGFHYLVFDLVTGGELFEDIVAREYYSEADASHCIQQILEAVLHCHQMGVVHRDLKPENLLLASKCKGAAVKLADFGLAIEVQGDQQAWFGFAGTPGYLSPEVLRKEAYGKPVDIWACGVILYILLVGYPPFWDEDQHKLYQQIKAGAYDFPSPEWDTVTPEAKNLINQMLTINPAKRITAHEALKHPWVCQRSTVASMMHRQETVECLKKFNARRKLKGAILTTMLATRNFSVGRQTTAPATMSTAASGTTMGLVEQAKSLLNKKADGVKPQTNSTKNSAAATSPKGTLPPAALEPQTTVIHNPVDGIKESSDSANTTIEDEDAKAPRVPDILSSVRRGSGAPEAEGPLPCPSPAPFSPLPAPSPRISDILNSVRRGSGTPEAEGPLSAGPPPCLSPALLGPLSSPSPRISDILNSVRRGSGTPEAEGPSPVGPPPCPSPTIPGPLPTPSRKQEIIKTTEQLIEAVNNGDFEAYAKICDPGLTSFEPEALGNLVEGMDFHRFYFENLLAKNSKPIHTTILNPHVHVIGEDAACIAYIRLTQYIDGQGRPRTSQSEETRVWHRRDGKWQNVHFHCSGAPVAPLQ
- assay details: Kinase profiling in a biochemical assay panel (mobility shift assays and ELISA), %-inhibition at 1 μM; selectivity entropy
- experimental context: 1 µM
quantity name: %-inhibition, CaMK2β (%)
Please reply with the bare figure in % and do not write the unit itself.

Data request: Query: %-inhibition, CaMK2β; subject: N#CC[C@H](C1CCCC1)n1cc(-c2ncnc3[nH]ccc23)cn1
Data returned: 22

Data request: Query: %-inhibition, CaMK2β; subject: C#Cc1cccc(Nc2ncnc3cc(OCCOC)c(OCCOC)cc23)c1
Data returned: -6

Data request: Query: %-inhibition, CaMK2β; subject: CS(=O)(=O)CCNCc1ccc(-c2ccc3ncnc(Nc4ccc(OCc5cccc(F)c5)c(Cl)c4)c3c2)o1
Data returned: -5

Data request: Query: %-inhibition, CaMK2β; subject: Cc1cn(-c2cc(NC(=O)c3ccc(C)c(Nc4nccc(-c5cccnc5)n4)c3)cc(C(F)(F)F)c2)cn1
Data returned: -21

---

For each record, write down the corresponding %-inhibition of KIT(V560G).
- study system: panel of more than 300 wild-type and mutant kinases (313 kinase panel) (Homo sapiens, UniProt P10721, V560G)
- Sequence (P10721 26-976 V560G): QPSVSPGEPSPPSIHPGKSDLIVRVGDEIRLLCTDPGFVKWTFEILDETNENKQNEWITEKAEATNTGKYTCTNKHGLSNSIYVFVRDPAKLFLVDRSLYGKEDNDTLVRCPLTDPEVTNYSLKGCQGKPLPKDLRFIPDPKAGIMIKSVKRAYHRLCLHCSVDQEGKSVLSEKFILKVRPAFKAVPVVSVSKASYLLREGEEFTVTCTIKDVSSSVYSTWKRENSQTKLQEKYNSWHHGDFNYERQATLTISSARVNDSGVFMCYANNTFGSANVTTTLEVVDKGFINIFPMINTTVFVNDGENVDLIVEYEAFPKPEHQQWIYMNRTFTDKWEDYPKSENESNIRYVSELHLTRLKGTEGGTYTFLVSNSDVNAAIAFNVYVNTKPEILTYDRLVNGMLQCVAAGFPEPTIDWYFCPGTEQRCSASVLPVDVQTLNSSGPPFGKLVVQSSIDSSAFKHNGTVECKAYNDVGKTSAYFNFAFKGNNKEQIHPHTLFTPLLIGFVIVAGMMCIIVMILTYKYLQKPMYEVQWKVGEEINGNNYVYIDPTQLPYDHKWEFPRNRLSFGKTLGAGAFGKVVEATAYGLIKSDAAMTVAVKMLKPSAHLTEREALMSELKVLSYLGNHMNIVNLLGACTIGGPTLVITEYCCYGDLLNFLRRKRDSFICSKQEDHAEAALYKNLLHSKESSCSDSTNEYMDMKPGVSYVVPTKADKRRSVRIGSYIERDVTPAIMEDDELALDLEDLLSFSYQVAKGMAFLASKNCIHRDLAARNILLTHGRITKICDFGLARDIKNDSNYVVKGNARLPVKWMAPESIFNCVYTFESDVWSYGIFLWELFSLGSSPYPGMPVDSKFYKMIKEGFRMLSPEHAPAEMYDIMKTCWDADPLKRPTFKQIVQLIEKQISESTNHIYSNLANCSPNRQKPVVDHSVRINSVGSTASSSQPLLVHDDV
- assay details: Kinase profiling in a biochemical assay panel (mobility shift assays and ELISA), %-inhibition at 1 μM; selectivity entropy
- experimental context: kinase KIT(V560G); compound at 1 μM
Please reply with the bare figure in % and do not write the unit itself.

Data request: Query: %-inhibition of KIT(V560G); subject: CNC(=O)c1cc(Oc2ccc(NC(=O)Nc3ccc(Cl)c(C(F)(F)F)c3)c(F)c2)ccn1
Data returned: 99

Data request: Query: %-inhibition of KIT(V560G); subject: COc1cc(Nc2c(C#N)cnc3cc(OCCCN4CCN(C)CC4)c(OC)cc23)c(Cl)cc1Cl
Data returned: 7

Data request: Query: %-inhibition of KIT(V560G); subject: O=S(=O)(c1cccc2cnccc12)N1CCCNCC1
Data returned: 0.322

Data request: Query: %-inhibition of KIT(V560G); subject: COc1cc2nccc(Oc3ccc(NC(=O)C4(C(=O)Nc5ccc(F)cc5)CC4)cc3)c2cc1OC [cabozantinib]
Data returned: 96

Data request: Query: %-inhibition of KIT(V560G); subject: CO[C@H]1C[C@@H]2CC[C@@H](C)[C@@](O)(O2)C(=O)C(=O)N2CCCC[C@H]2C(=O)O[C@H]([C@H](C)C[C@@H]2CC[C@@H](OCCO)[C@H](OC)C2)CC(=O)[C@H](C)/C=C(\C)[C@@H](O)[C@@H](OC)C(=O)[C@H](C)C[C@H](C)/C=C/C=C/C=C/1C
Data returned: -6

Data request: Query: %-inhibition of KIT(V560G); subject: CC(=O)Nc1cccc(-n2c(=O)n(C3CC3)c(=O)c3c(Nc4ccc(I)cc4F)n(C)c(=O)c(C)c32)c1
Data returned: 1

---

For each record, write down the corresponding %-inhibition of RON.
- study system: panel of more than 300 wild-type and mutant kinases (313 kinase panel) (Homo sapiens)
- assay details: Kinase profiling in a biochemical assay panel (mobility shift assays and ELISA), %-inhibition at 1 μM; selectivity entropy
- experimental context: kinase RON; 1 μM
Please reply with the bare figure in % and do not write the unit itself.

Data request: Query: %-inhibition of RON; subject: CO[C@H]1C[C@@H]2CC[C@@H](C)[C@@](O)(O2)C(=O)C(=O)N2CCCC[C@H]2C(=O)O[C@H]([C@H](C)C[C@@H]2CC[C@@H](OCCO)[C@H](OC)C2)CC(=O)[C@H](C)/C=C(\C)[C@@H](O)[C@@H](OC)C(=O)[C@H](C)C[C@H](C)/C=C/C=C/C=C/1C
Data returned: -6.45

Data request: Query: %-inhibition of RON; subject: CCN(CC)CCNC(=O)c1c(C)[nH]c(/C=C2\C(=O)Nc3ccc(F)cc32)c1C
Data returned: 22

Data request: Query: %-inhibition of RON; subject: CO[C@H]1C[C@@H]2CC[C@@H](C)[C@@](O)(O2)C(=O)C(=O)N2CCCC[C@H]2C(=O)O[C@H]([C@H](C)C[C@@H]2CC[C@@H](OC(=O)C(C)(CO)CO)[C@H](OC)C2)CC(=O)[C@H](C)/C=C(\C)[C@@H](O)[C@@H](OC)C(=O)[C@H](C)C[C@H](C)/C=C/C=C/C=C/1C
Data returned: -3

Data request: Query: %-inhibition of RON; subject: CS(=O)(=O)CCNCc1ccc(-c2ccc3ncnc(Nc4ccc(OCc5cccc(F)c5)c(Cl)c4)c3c2)o1
Data returned: 1.17

Data request: Query: %-inhibition of RON; subject: O=S(=O)(c1cccc2cnccc12)N1CCCNCC1
Data returned: -6

Data request: Query: %-inhibition of RON; subject: COc1cc2nccc(Oc3ccc(NC(=O)C4(C(=O)Nc5ccc(F)cc5)CC4)cc3)c2cc1OC [cabozantinib]
Data returned: 99

Data request: Query: %-inhibition of RON; subject: N#CC[C@H](C1CCCC1)n1cc(-c2ncnc3[nH]ccc23)cn1
Data returned: -5

Data request: Query: %-inhibition of RON; subject: CNC(=O)c1cc(Oc2ccc(NC(=O)Nc3ccc(Cl)c(C(F)(F)F)c3)c(F)c2)ccn1
Data returned: 3.5

Data request: Query: %-inhibition of RON; subject: CC(=O)Nc1cccc(-n2c(=O)n(C3CC3)c(=O)c3c(Nc4ccc(I)cc4F)n(C)c(=O)c(C)c32)c1
Data returned: -6.44

Data request: Query: %-inhibition of RON; subject: CC(C)(C)c1nc(-c2cccc(NS(=O)(=O)c3c(F)cccc3F)c2F)c(-c2ccnc(N)n2)s1
Data returned: 37

Data request: Query: %-inhibition of RON; subject: Cc1ccc(C(=O)Nc2ccc(CN3CCN(C)CC3)c(C(F)(F)F)c2)cc1C#Cc1cnc2cccnn12
Data returned: 39

Data request: Query: %-inhibition of RON; subject: Cc1ccc(Nc2nccc(N(C)c3ccc4c(C)n(C)nc4c3)n2)cc1S(N)(=O)=O
Data returned: 13

Data request: Query: %-inhibition of RON; subject: CCCS(=O)(=O)Nc1ccc(F)c(C(=O)c2c[nH]c3ncc(-c4ccc(Cl)cc4)cc23)c1F
Data returned: -2

---

For each record, write down the corresponding %-inhibition of IRAK4.
- study system: panel of more than 300 wild-type and mutant kinases (313 kinase panel) (Homo sapiens, UniProt Q9NWZ3)
- assay details: Kinase profiling in a biochemical assay panel (mobility shift assays and ELISA), %-inhibition at 1 μM; selectivity entropy
- experimental context: kinase IRAK4; compound at 1 μM
Please reply with the bare figure in % and do not write the unit itself.

Data request: Query: %-inhibition of IRAK4; subject: O=S(=O)(c1cccc2cnccc12)N1CCCNCC1
Data returned: -4.68

Data request: Query: %-inhibition of IRAK4; subject: Cc1ccc(Nc2nccc(N(C)c3ccc4c(C)n(C)nc4c3)n2)cc1S(N)(=O)=O
Data returned: -0.622

Data request: Query: %-inhibition of IRAK4; subject: Cc1ccc(C(=O)Nc2ccc(CN3CCN(C)CC3)c(C(F)(F)F)c2)cc1C#Cc1cnc2cccnn12
Data returned: 29

Data request: Query: %-inhibition of IRAK4; subject: C[C@@H](Oc1cc(-c2cnn(C3CCNCC3)c2)cnc1N)c1c(Cl)ccc(F)c1Cl
Data returned: 8

Data request: Query: %-inhibition of IRAK4; subject: CC(=O)Nc1cccc(-n2c(=O)n(C3CC3)c(=O)c3c(Nc4ccc(I)cc4F)n(C)c(=O)c(C)c32)c1
Data returned: -5

Data request: Query: %-inhibition of IRAK4; subject: CS(=O)(=O)CCNCc1ccc(-c2ccc3ncnc(Nc4ccc(OCc5cccc(F)c5)c(Cl)c4)c3c2)o1
Data returned: -2

Data request: Query: %-inhibition of IRAK4; subject: CCCS(=O)(=O)Nc1ccc(F)c(C(=O)c2c[nH]c3ncc(-c4ccc(Cl)cc4)cc23)c1F
Data returned: -4.29

Data request: Query: %-inhibition of IRAK4; subject: CNC(=O)c1cc(Oc2ccc(NC(=O)Nc3ccc(Cl)c(C(F)(F)F)c3)c(F)c2)ccn1
Data returned: 1.07

---

- Tested on: forty-four human cancer cell lines
- assay details: Cell proliferation assay (ATPlite, 72 hours) in the 44 cell line Oncolines panel
- Format: cell-based
- experimental context: cell line A-204; read-out: cell panel IC50, A-204
quantity name: IC50

Data request: Query: IC50; subject: N.N.[Cl][Pt][Cl] [cisplatin]
Data returned: > 31.6 µM

---

- study system: panel of more than 300 wild-type and mutant kinases (313 kinase panel) (Homo sapiens)
- assay details: Kinase profiling in a biochemical assay panel (mobility shift assays and ELISA), %-inhibition at 1 μM; selectivity entropy
- experimental context: kinase EGFR; compound at 1 μM
Outcome: Met for %-inhibition of EGFR of at least 10%; Not met for anything lower.

Data request: Does the reported %-inhibition of EGFR for N#CC[C@H](C1CCCC1)n1cc(-c2ncnc3[nH]ccc23)cn1 fall at or above the 10% mark?
Data returned: Not met

Data request: Does the reported %-inhibition of EGFR for CCCS(=O)(=O)Nc1ccc(F)c(C(=O)c2c[nH]c3ncc(-c4ccc(Cl)cc4)cc23)c1F fall at or above the 10% mark?
Data returned: Not met

Data request: Does the reported %-inhibition of EGFR for Cc1ccc(Nc2nccc(N(C)c3ccc4c(C)n(C)nc4c3)n2)cc1S(N)(=O)=O fall at or above the 10% mark?
Data returned: Met

Data request: Does the reported %-inhibition of EGFR for CNC(=O)c1cc(Oc2ccc(NC(=O)Nc3ccc(Cl)c(C(F)(F)F)c3)c(F)c2)ccn1 fall at or above the 10% mark?
Data returned: Met

Data request: Does the reported %-inhibition of EGFR for Cc1cn(-c2cc(NC(=O)c3ccc(C)c(Nc4nccc(-c5cccnc5)n4)c3)cc(C(F)(F)F)c2)cn1 fall at or above the 10% mark?
Data returned: Met

Data request: Does the reported %-inhibition of EGFR for COc1cc2nccc(Oc3ccc(NC(=O)C4(C(=O)Nc5ccc(F)cc5)CC4)cc3)c2cc1OC [cabozantinib] fall at or above the 10% mark?
Data returned: Met
